experiment: compound effects on multiple myeloma cell viability – MM1S, calcein-AM fluorescence, 48 h, basal, profiling panel (AID 1165); conditions: higher = more signal; also: test concentration not given here
Cut-off -2 on z-score, inclusive. At or above means y; below means n.

substance_smiles=C=C(/C(=C/C[C@@H](OC(C)=O)c1ccc(CO)o1)c1cnc2ccccc2c1)C(C)C label=y
substance_smiles=COc1ccc([Si](C)(C)[C@@H]2[C@@H](CCO)O[C@]3(C(=O)N(Cc4ccccc4)c4ccc(N(C=O)c5ccccc5)cc43)[C@H]2C)cc1 label=y
substance_smiles=Cc1ccc(S[C@]2(C(=O)NCCCN(C)C)CC(=O)N(C(C)C)[C@@H]2c2ccc(CO)cc2I)cc1 label=n
substance_smiles=CC(=O)NCCCC[C@@H]1NC(=O)[C@@H]2C[C@H](C(=O)NCCCCCC[N+](C)(C)C)[C@H](c3cccc(OCCO)c3)N2C1=O label=y
substance_smiles=O=C1C[C@@](C(=O)O)(c2ccc([N+](=O)[O-])cc2)[C@@H](c2ccc(CO)cc2I)N1CC12CC3CC(CC(C3)C1)C2 label=n
substance_smiles=COCC1=C([C@H](O)CCc2ccccc2)[C@H](CO)[C@@H]2C(=O)N(Cc3ccccc3)C(=O)[C@@H]2C1 label=y
substance_smiles=CO[C@H]1O[C@H](CO)[C@@H](OC(=O)Nc2ccc3c(c2)OCO3)[C@H](OC(=O)Nc2ccc3c(c2)OCO3)[C@H]1OC(=O)Nc1ccc2c(c1)OCO2 label=y
